The reported numbers originate from the supplement of paper PMC11061612.

Item-by-item account of combination Emax
Test system: Hs-578-T (Breast Carcinoma)
Experiment: combination Emax (second highest fraction inhibited in the dose matrix, 72 h); higher = more inhibition; extreme values may be limits of the assay
Form: value (number only, do not type unit).

CN(C)CCCOc1ccc(-c2ccc3ncc4c(c3c2)n(C2CCOCC2)c(=O)n4C)cn1 [AZD0156] + CCN(CCO)CCCOc1ccc2c(Nc3cc(CC(=O)Nc4cccc(F)c4)[nH]n3)ncnc2c1 [AZD2811] (first compound max 1 µM, 7x7, partner max 1 µM)	0.565
Cc1cc2ncnn2cc1Nc1ncc2c(n1)n(C1CCOCC1)c(=O)n2C [AZD7648] + O=C(c1cc(Cc2n[nH]c(=O)c3ccccc23)ccc1F)N1CCN(C(=O)C2CC2)CC1 [Olaparib] (first compound max 10 µM, 7x7, partner max 10 µM)	0.507
CCc1c2c(nc3ccc(O)cc13)-c1cc3c(c(=O)n1C2)COC(=O)[C@]3(O)CC [SN-38] + O=C(c1cc(Cc2n[nH]c(=O)c3ccccc23)ccc1F)N1CCN(C(=O)C2CC2)CC1 [Olaparib] (first compound max 0.3 µM, 7x7, partner max 10 µM)	0.709

The record that follows has no combination Emax shown yet.
Input line: Indicate the recorded combination Emax value for this compound: CC1(C)CCC(CN2CCN(c3ccc(C(=O)NS(=O)(=O)c4ccc(NCC5CCOCC5)c([N+](=O)[O-])c4)c(Oc4cnc5[nH]ccc5c4)c3)CC2)=C(c2ccc(Cl)cc2)C1 [Venetoclax] + CN(C)CCCOc1ccc(-c2ccc3ncc4c(c3c2)n(C2CCOCC2)c(=O)n4C)cn1 [AZD0156] (first compound max 1 µM, 7x7, partner max 1 µM)
Output line: 0.793
